tgt: T1, mouse BR3 extracellular domain (mouse, UniProt Q9D8D0 1-64)
T1 construct: also called mBR3-ECD; mBR-ECD
T1 sequence: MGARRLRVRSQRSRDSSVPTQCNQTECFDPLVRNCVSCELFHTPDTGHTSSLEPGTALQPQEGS
assay_comment: phage competition ELISA
outcome_measure: IC50 (nM)
Only the number, expressed in nM, is required.

Here's what some known entries look like.
Exam item: Returns the measured IC50 for the input binder. Input: V3-46s-34 phage clone (Fab, V domains shown) VH: EVQLVESGGGLVQPGGSLRLSCAASGFTISSSSIHWVRQAPGKGLEWVAWVLPSVGFTDYADSVKGRFTISADTSKNTAYLQMNSLRAEDTAVYYCARRVCYNRLGVCAGGMDYWGQGTLVTVSS VL: DIQMTQSPSSLSASVGDRVTITCRASEDISSAVAWYQQKPGKAPKLLIFSASFLFSGVPSRFSGSGSGTDFTLTISSLQPEDFATYYCQQSQVSPPTFGQGTKVEIK
Marked response: 0.79

Exam item: Returns the measured IC50 for the input binder. Input: V3-46s-9 Fab (Fab, V domains shown, soluble Fab in SPR; also called V46s-9) VH: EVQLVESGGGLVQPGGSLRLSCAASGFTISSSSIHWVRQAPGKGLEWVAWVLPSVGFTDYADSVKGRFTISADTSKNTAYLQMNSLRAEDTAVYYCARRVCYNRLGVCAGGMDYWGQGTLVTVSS VL: DIQMTQSPSSLSASVGDRVTITCRASEDISTAVAWYQQKPGKAPKLLIFAASYLYSGVPSRFSGSGSGTDFTLTISSLQPEDFATYYCQQSQISPPTFGQGTKVEIK
Marked response: 0.182

Now for another entry.
Exam item: Returns the measured IC50 for the input binder. Input: V3-46s-37 phage clone (Fab, V domains shown) VH: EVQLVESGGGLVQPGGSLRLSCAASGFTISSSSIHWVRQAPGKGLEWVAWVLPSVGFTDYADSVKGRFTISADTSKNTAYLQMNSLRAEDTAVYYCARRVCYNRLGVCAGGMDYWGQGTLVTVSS VL: DIQMTQSPSSLSASVGDRVTITCRASQDVATAVAWYQQKPGKAPKLLIFAASFLYSGVPSRFSGSGSGTDFTLTISSLQPEDFATYYCQQSQISPPTFGQGTKVEIK
Marked response: 0.32
